test-description: Toxicokinetics of LUM001 free form, 13-week oral capsule toxicity study in dogs
Format: in vivo, Beagle dogs
applied-conditions: both sexes, Beagle, dog, plasma, oral, 100 mg/kg, Day 91; 100 mg/kg; Comb

molecule | units-text | Cmax
CCCCC1(CCCC)CS(=O)(=O)c2ccc(N(C)C)cc2[C@@H](c2ccc(OCc3ccc(C[N+]45CCN(CC4)CC5)cc3)cc2)[C@H]1O [LUM001] | ng/mL | 140

---

test-description: Toxicokinetics of LUM001 free form, 13-week oral capsule toxicity study in dogs
Format: in vivo, Beagle dogs
applied-conditions: male, Beagle, dog, plasma, oral, 100 mg/kg, Day 91; 100 mg/kg; M; read-out: AUC(0-24 h), mean

molecule | AUC(0-t) (ng·h/mL)
CCCCC1(CCCC)CS(=O)(=O)c2ccc(N(C)C)cc2[C@@H](c2ccc(OCc3ccc(C[N+]45CCN(CC4)CC5)cc3)cc2)[C@H]1O [LUM001] | 405

---

test-description: Pharmacokinetics of LUM001 after oral gavage in rats
Type: in vivo
applied-conditions: both sexes, Sprague Dawley, rat, plasma, 30 mg/kg, single oral gavage 30 mg/kg free form, fasted
Experimental: Groups of fasted Sprague Dawley rats (n=6/sex/group) were administered LUM001 as a single oral solution dose of either 1, 5 or 30 mg LUM001 free form/kg. […] Blood samples of approximately 1 mL (n=2/sex/timepoint/treatment group) were collected by retro-orbital bleed into chilled tubes containing heparin at timepoints 0 (predose), 0.25, 0.5, 1, 1.5, 2, 3, 5 and 8 hours. […] The concentration of LUM001 free form in plasma were determined using an LCMSMS method. […]

input-smiles | Cmax [ng/mL]
CCCCC1(CCCC)CS(=O)(=O)c2ccc(N(C)C)cc2[C@@H](c2ccc(OCc3ccc(C[N+]45CCN(CC4)CC5)cc3)cc2)[C@H]1O | 5.43

---

test-description: Pharmacokinetics of LUM001 after oral solution and capsule in dogs
Assay type: in vivo, Beagle dogs
applied-conditions: female, Beagle, dog, plasma, po, 7.5 mg/kg, oral solution 7.5 mg/kg free form, fed

input-smiles | Cmax [ng/mL]
CCCCC1(CCCC)CS(=O)(=O)c2ccc(N(C)C)cc2[C@@H](c2ccc(OCc3ccc(C[N+]45CCN(CC4)CC5)cc3)cc2)[C@H]1O | 1.28

---

test-description: Toxicokinetics of LUM001 free form, 13-week oral capsule toxicity study in dogs
Assay type: in vivo, Beagle dogs
applied-conditions: male, Beagle, dog, plasma, oral, 100 mg/kg, Day 1; 100 mg/kg; M
quantity-measured: Cmax (ng/mL)

input-smiles | data-value
CCCCC1(CCCC)CS(=O)(=O)c2ccc(N(C)C)cc2[C@@H](c2ccc(OCc3ccc(C[N+]45CCN(CC4)CC5)cc3)cc2)[C@H]1O | 64.8

---

test-description: Pharmacokinetics of LUM001 after oral solution and capsule in dogs
Format: in vivo, Beagle dogs
applied-conditions: female, Beagle, dog, plasma; oral capsule 7.5 mg/kg free form, fasted; read-out: BA (bioavailability)
quantity-measured: bioavailability

input-smiles | data-value
CCCCC1(CCCC)CS(=O)(=O)c2ccc(N(C)C)cc2[C@@H](c2ccc(OCc3ccc(C[N+]45CCN(CC4)CC5)cc3)cc2)[C@H]1O | < 0.1%

---

test-description: Toxicokinetics of LUM001 free form, 13-week oral capsule toxicity study in dogs
Format: in vivo, Beagle dogs
applied-conditions: female, Beagle, dog, plasma, oral, 100 mg/kg, Day 1; 100 mg/kg; F; read-out: AUC(0-24 h), mean

input-smiles | AUC(0-t) [ng·h/mL]
CCCCC1(CCCC)CS(=O)(=O)c2ccc(N(C)C)cc2[C@@H](c2ccc(OCc3ccc(C[N+]45CCN(CC4)CC5)cc3)cc2)[C@H]1O | 344

---

test-description: Toxicokinetics of LUM001 free form, 13-week oral capsule toxicity study in dogs
Format: in vivo, Beagle dogs
applied-conditions: female, Beagle, dog, plasma, oral, 20 mg/kg, Day 91; 20 mg/kg; F; read-out: AUC(0-24 h), mean

molecule | AUC(0-t) / ng·h/mL
CCCCC1(CCCC)CS(=O)(=O)c2ccc(N(C)C)cc2[C@@H](c2ccc(OCc3ccc(C[N+]45CCN(CC4)CC5)cc3)cc2)[C@H]1O [LUM001] | 53.9

---

test-description: Toxicokinetics of LUM001 free form, 13-week oral gavage toxicity study in rats
Format: in vivo
applied-conditions: male, Charles River CD IGS, rat, plasma, oral; Day 78; 150 mg/kg; M
Protocol: Charles River CD IGS rats were assigned to treatment groups (9sex/toxicokinetic group) and were administered daily doses of 0, 5, 30, 75, and 150 mg/kg (males) or 0, 5, 30, 150, and 500 mg/kg (females). […] All animals were dosed with 10 mL/kg/day based on the most recently determined body weights. […] Plasma samples were stored at approximately −20° C. or lower until analyzed. The concentration of LUM001 free form in plasma were determined using an LCMSMS method. […]

molecule | Tmax [h]
CCCCC1(CCCC)CS(=O)(=O)c2ccc(N(C)C)cc2[C@@H](c2ccc(OCc3ccc(C[N+]45CCN(CC4)CC5)cc3)cc2)[C@H]1O [LUM001] | 1

---

test-description: Pharmacokinetics of LUM001 after oral solution and capsule in dogs
Assay type: in vivo, Beagle dogs
applied-conditions: female, Beagle, dog, plasma, po, 7.5 mg/kg, oral solution 7.5 mg/kg free form, fed; read-out: AUC(0-24 h)

input-smiles | units-text | AUC(0-t)
CCCCC1(CCCC)CS(=O)(=O)c2ccc(N(C)C)cc2[C@@H](c2ccc(OCc3ccc(C[N+]45CCN(CC4)CC5)cc3)cc2)[C@H]1O | ng·h/mL | 3.9

---

test-description: Toxicokinetics of LUM001 free form, 13-week oral gavage toxicity study in rats
Assay type: in vivo
applied-conditions: male, CD IGS, rat, plasma, oral; Day 1; 150 mg/kg; M
quantity-measured: Cmax (ng/mL)

input-smiles | data-value
CCCCC1(CCCC)CS(=O)(=O)c2ccc(N(C)C)cc2[C@@H](c2ccc(OCc3ccc(C[N+]45CCN(CC4)CC5)cc3)cc2)[C@H]1O | 32.1

---

test-description: Pharmacokinetics of LUM001 after oral gavage in rats
Type: in vivo
applied-conditions: both sexes, Sprague Dawley, rat, plasma, 5 mg/kg, single oral gavage 5 mg/kg free form, fed, read-out: BA (bioavailability)
quantity-measured: bioavailability (%)

molecule | quantity-measured | data-value
CCCCC1(CCCC)CS(=O)(=O)c2ccc(N(C)C)cc2[C@@H](c2ccc(OCc3ccc(C[N+]45CCN(CC4)CC5)cc3)cc2)[C@H]1O [LUM001] | bioavailability | 0.2

---

test-description: Toxicokinetics of LUM001 free form, 13-week oral capsule toxicity study in dogs
Format: in vivo, Beagle dogs
applied-conditions: both sexes, Beagle, dog, plasma, oral, 5 mg/kg, Day 1; 5 mg/kg; Comb
quantity-measured: Tmax

input-smiles | data-value
CCCCC1(CCCC)CS(=O)(=O)c2ccc(N(C)C)cc2[C@@H](c2ccc(OCc3ccc(C[N+]45CCN(CC4)CC5)cc3)cc2)[C@H]1O | 1.5 h

---

test-description: Toxicokinetics of LUM001 free form, 13-week oral capsule toxicity study in dogs
Format: in vivo, Beagle dogs
applied-conditions: both sexes, Beagle, dog, plasma, oral, 100 mg/kg, Day 1; 100 mg/kg; Comb; read-out: AUC(0-24 h), mean
Description: Six- to seven-month old Beagle dogs of body weights of 4.9-9.5 kg (4/sex/group) orally via capsules at 0, 5, 20 or 100 mg/kg for 13 consecutive weeks. Plasma levels of LUM001 (free form) were evaluated on Days 1 and 91. […] Plasma samples were stored at approximately −70° C. or lower until analyzed. The concentration of LUM001 free form in plasma were determined using an LCMSMS method. […]
quantity-measured: AUC(0-t) (ng·h/mL)

input-smiles | quantity-measured | data-value
CCCCC1(CCCC)CS(=O)(=O)c2ccc(N(C)C)cc2[C@@H](c2ccc(OCc3ccc(C[N+]45CCN(CC4)CC5)cc3)cc2)[C@H]1O | AUC(0-t) | 239

---

test-description: Toxicokinetics of LUM001 free form, 13-week oral gavage toxicity study in rats
Assay type: in vivo
applied-conditions: male, Charles River CD IGS, rat, plasma, oral; Day 78; 30.0 mg/kg; M
quantity-measured: Tmax

molecule | data-value
CCCCC1(CCCC)CS(=O)(=O)c2ccc(N(C)C)cc2[C@@H](c2ccc(OCc3ccc(C[N+]45CCN(CC4)CC5)cc3)cc2)[C@H]1O [LUM001] | 3 h

---

test-description: Pharmacokinetics of LUM001 after oral gavage in rats
Type: in vivo
applied-conditions: both sexes, Sprague Dawley, rat, plasma, 5 mg/kg, single oral gavage 5 mg/kg free form, fasted

input-smiles | Tmax [h]
CCCCC1(CCCC)CS(=O)(=O)c2ccc(N(C)C)cc2[C@@H](c2ccc(OCc3ccc(C[N+]45CCN(CC4)CC5)cc3)cc2)[C@H]1O | 1
